biological target: CDK2 (UniProt P24941); assay: Enzyme Assay
pIC50: −log10 of the molar value.
measured.metric: pIC50

* O=C(Nc1cccc2c1C(=O)c1c(-c3ccc(OCc4nnn[nH]4)cc3)n[nH]c1-2)NN1CCOCC1 | > 7.00
* CC(C)c1nn(-c2c(Cl)cccc2Cl)c2nc(Cc3ccc(OCCN4CCOCC4)cc3)[nH]c(=O)c12 | > 8.00
* Cc1noc(COc2ccc(-c3[nH]nc4c3C(=O)c3c(NC(=O)NN5CCOCC5)cccc3-4)cc2)n1 | > 7.00
* CN1CCN(NC(=O)Nc2cccc3c2C(=O)c2c-3n[nH]c2-c2ccc(OCCN3CCOCC3)cc2)CC1 | > 8.00
* CC(C)N1CCN(CCOc2ccc(-c3[nH]nc4c3C(=O)c3c(NC(=O)NN5CCOCC5)cccc3-4)cc2)CC1 | > 8.00
* Cc1nc(Cc2nc3c(c(C(C)C)nn3-c3c(Cl)cccc3Cl)c(=O)[nH]2)cs1 | > 8.00
* CC(C)c1nn(-c2c(Cl)cc(Cl)cc2Cl)c2nc(Cc3ccc(NS(=O)(=O)CCCN4CCCC4)cc3)[nH]c(=O)c12 | > 7.00
* CC(C)c1nn(-c2c(Cl)cccc2Cl)c2nc(Cc3ccc(C(=O)NOCCN4CCOCC4)cc3)[nH]c(=O)c12 | > 7.00
* O=C(Nc1cccc2c1C(=O)c1c-2n[nH]c1-c1ccc(OP(=O)(O)O)cc1)NN1CCOCC1 | > 7.00
* CC(C)c1nn(-c2c(Cl)cc(S(N)(=O)=O)cc2Cl)c2nc(Cc3ccc(OCCN4CCOCC4)cc3)[nH]c(=O)c12 | > 8.00
* O=C(Nc1cccc2c1C(=O)c1c(-c3ccc(CN4CCN(CCO)CC4)cc3)n[nH]c1-2)NN1CCOCC1 | > 7.00
* CC(C)c1nn(-c2c(Cl)cccc2Cl)c2nc(Cc3ccc(OCCOP(=O)(O)O)cc3)[nH]c(=O)c12 | > 7.00
* CN1CCN(NC(=O)Nc2cccc3c2C(=O)c2c-3n[nH]c2-c2ccc(O)cc2)CC1 | > 7.00
* CC(C)c1nn(-c2c(Cl)cccc2Cl)c2nc(Cc3ccc(NS(=O)(=O)CCCN4CCOCC4)cc3)[nH]c(=O)c12 | > 7.00
* CN1CCN(Cc2ccc(-c3n[nH]c4c3C(=O)c3c(NC(=O)NN5CCOCC5)cccc3-4)cc2)CC1 | > 7.00
* CC(C)N1CCN(NC(=O)Nc2cccc3c2C(=O)c2c-3n[nH]c2-c2ccc(OCCN3CCCC3)cc2)CC1 | > 8.00

Recorded values, source the Kinase Knowledgebase extract (Sharma et al. 2016).
